assay_summary: total protein half-life in vivo (active degradation + dilution); higher = more stable protein
settings: wild type E. coli NCM3722; growth: C-lim chemostat; doubling time 3 h
I'd appreciate it if you could supply total protein half-life in vivo values for the items below.
Answers are plain numbers, in h.

List total protein half-life in vivo for every entry below, keeping the order given.
1. MEYFDMRKMSVNLWRNAAGETREICTFPPAKRDFYWRASIASIAANGEFSLFPGMERIVTLLEGGEMLLESADRFNHTLKPFQPFAFAADQVVKAKLTAGQMSMDFNIMTRLDVCKAKVRIAERTFTTFGSRGGVVFVINGAWQLGDKLLTTDQGACWFDGRHTLRLLQPQGKLLFSEINWLAGHSPDQVQ
2. MSNTDASGEKRVTGTSERREQIIQRLRQQGSVQVNDLSALYGVSTVTIRNDLAFLEKQGIAVRAYGGALICDSTTPSVEPSVEDKSALNTAMKRSVAKAAVELIQPGHRVILDSGTTTFEIARLMRKHTDVIAMTNGMNVANALLEAEGVELLMTGGHLRRQSQSFYGDQAEQSLQNYHFDMLFLGVDAIDLERGVSTHNEDEARLNRRMCEVAERIIVVTDSSKFNRSSLHKIIDTQRIDMIIVDEGIPADSLEGLRKAGVEVILVGE [P0ACK2]

## Output
[0.307, 3.02]

---

assay_summary: total protein half-life in vivo (active degradation + dilution); higher = more stable protein
settings: E. coli NCM3722 delta-smpB; growth: N-lim chemostat; doubling time 6 h
For each record, write down the corresponding total protein half-life in vivo.
Answers are plain numbers, in h.

Worked examples follow.
[[record]]
polymer_sequence = "MPGLKITLLQQPLVWMDGPANLRHFDRQLEGITGRDVIVLPEMFTSGFAMEAAASSLAQDDVVNWMTAKAQQCNALIAGSVALQTESGSVNRFLLVEPGGTVHFYDKRHLFRMADEHLHYKAGNARVIVEWRGWRILPLVCYDLRFPVWSRNLNDYDLALYVANWPAPRSLHWQALLTARAIENQAYVAGCNRVGSDGNGCHYRGDSRVINPQGEIIATADAHQATRIDAELSMAALREYREKFPAWQDADEFRLW"
measured = 3.9

[[record]]
polymer_sequence = "MKPRQRQAAILEYLQKQGKCSVEELAQYFDTTGTTIRKDLVILEHAGTVIRTYGGVVLNKEESDPPIDHKTLINTHKKELIAEAAVSFIHDGDSIILDAGSTVLQMVPLLSRFNNITVMTNSLHIVNALSELDNEQTILMPGGTFRKKSASFHGQLAENAFEHFTFDKLFMGTDGIDLNAGVTTFNEVYTVSKAMCNAAREVILMADSSKFGRKSPNVVCSLESVDKLITDAGIDPAFRQALEEKGIDVIITGESNE"
measured = 6.36

[[record]]
polymer_sequence = "MKPGCTLFFLLCSALTVTTEAHAQTPDTATTAPYLLAGAPTFDLSISQFREDFNSQNPSLPLNEFRAIDSSPDKANLTRAASKINENLYASTALERGTLKIKSIQMTWLPIQGPEQKAAKAKAQEYMAAVIRTLTPLMTKTQSQKKLQSLLTAGKNKRYYTETEGALRYVVADNGEKGLTFAVEPIKLALSESLEGLNK"
measured = 5.12


Provide total protein half-life in vivo values for the following items, in order.
1. MTIYFINWVADYELKMIQYLKKKYKIKNITTPKKYNWINKKISKIGMDNAWLGRLFIKHYLNDIKKDDIIIINDSVVNKGINKQILKNINCHKVLLLRNTVGEDFILDNANYFDIIYDFEHRFIGNEKIKAIEQFFPIGMDEIRNYSLSDKNNSQPICFFLGRDKGRLQIINELAERLTTLGCKLDFNVVKDKTSSTTSKYLIEKQISYEENIRRTLNANIIVDITKENQSGWTLRILEALFFNKKLITNNINVFGSEIYSESRFFIIGHDDWDKLEYFINSSVKPMDYDSLYKFSPDKMMSTIVSDFIDK
2. MNIVVLISGNGSNLQAIIDACKTNKIKGTVRAVFSNKADAFGLERARQAGIATHTLIASAFDSREAYDRELIHEIDMYAPDVVVLAGFMRILSPAFVSHYAGRLLNIHPSLLPKYPGLHTHRQALENGDEEHGTSVHFVTDELDGGPVILQAKVPVFAGDSEDDITARVQTQEHAIYPLVISWFADGRLKMHENAAWLDGQRLPPQGYAADE
3. MLILISPAKTLDYQSPLTTTRYTLPELLDNSQQLIHEARKLTPPQISTLMRISDKLAGINAARFHDWQPDFTPANARQAILAFKGDVYTGLQAETFSEDDFDFAQQHLRMLSGLYGVLRPLDLMQPYRLEMGIRLENARGKDLYQFWGDIITNKLNEALAAQGDNVVINLASDEYFKSVKPKKLNAEIIKPVFLDEKNGKFKIISFYAKKARGLMSRFIIENRLTKPEQLTGFNSEGYFFDEDSSSNGELVFKRYEQR [P0A8I3]
4. MLKRVFLSLLVLIGLLLLTVLGLDRWMSWKTAPYIYDELQDLPYRQVGVVLGTAKYYRTGVINQYYRYRIQGAINAYNSGKVNYLLLSGDNALQSYNEPMTMRKDLIAAGVDPSDIVLDYAGFRTLDSIVRTRKVFDTNDFIIITQRFHCERALFIALHMGIQAQCYAVPSPKDMLSVRIREFAARFGALADLYIFKREPRFLGPLVPIPAMHQVPEDAQGYPAVTPEQLLELQKKQGK [P0AFY2]
5. MSAGSPKFTVRRIAALSLVSLWLAGCSDTSNPPAPVSSVNGNAPANTNSGMLITPPPKMGTTSTAQQPQIQPVQQPQIQATQQPQIQPVQPVAQQPVQMENGRIVYNRQYGNIPKGSYSGSTYTVKKGDTLFYIAWITGNDFRDLAQRNNIQAPYALNVGQTLQVGNASGTPITGGNAITQADAAEQGVVIKPAQNSTVAVASQPTITYSESSGEQSANKMLPNNKPTATTVTAPVTVPTASTTEPTVSSTSTSTPISTWRWPTEGKVIETFGASEGGNKGIDIAGSKGQAIIATADGRVVYAGNALRGYGNLIIIKHNDDYLSAYAHNDTMLVREQQEVKAGQKIATMGSTGTSSTRLHFEIRYKGKSVNPLRYLPQR [P0ADA3]
6. MENYLIDNLDRGILEALMGNARTAYAELAKQFGVSPGTIHVRVEKMKQAGIITGARIDVSPKQLGYDVGCFIGIILKSAKDYPSALAKLESLDEVTEAYYTTGHYSIFIKVMCRSIDALQHVLINKIQTIDEIQSTETLIVLQNPIMRTIKP [P0ACI6]
7. MDALSRLLMLNAPQGTIDKNCVLGSDWQLPHGAGELSVIRWHALTQGAAKLEMPTGEIFTLRPGNVVLLPQNSAHRLSHVDNESTCIVCGTLRLQHSARYFLTSLPETLFLAPVNHSVEYNWLREAIPFLQQESRSAMPGVDALCSQICATFFTLAVREWIAQVNTEKNILSLLLHPRLGAVIQQMLEMPGHAWTVESLASIAHMSRASFAQLFRDVSGTTPLAVLTKLRLQIAAQMFSRETLPVVVIAESVGYASESSFHKAFVREFGCTPGEYRERVRQLAP
8. MLYIFRLIITVIYSILVCVFGSIYCLFSPRNPKHVATFGHMFGRLAPLFGLKVECRKPTDAESYGNAIYIANHQNNYDMVTASNIVQPPTVTVGKKSLLWIPFFGQLYWLTGNLLIDRNNRTKAHGTIAEVVNHFKKRRISIWMFPEGTRSRGRGLLPFKTGAFHAAIAAGVPIIPVCVSTTSNKINLNRLHNGLVIVEMLPPIDVSQYGKDQVRELAAHCRSIMEQKIAELDKEVAEREAAGKV

## Output
1. 4.65
2. 4.39
3. 2.63
4. 6.02
5. 6.32
6. 5.72
7. 5.16
8. 4.95
